Biological target: TYK2 (Homo sapiens)
Sequence (P29597 whole entry): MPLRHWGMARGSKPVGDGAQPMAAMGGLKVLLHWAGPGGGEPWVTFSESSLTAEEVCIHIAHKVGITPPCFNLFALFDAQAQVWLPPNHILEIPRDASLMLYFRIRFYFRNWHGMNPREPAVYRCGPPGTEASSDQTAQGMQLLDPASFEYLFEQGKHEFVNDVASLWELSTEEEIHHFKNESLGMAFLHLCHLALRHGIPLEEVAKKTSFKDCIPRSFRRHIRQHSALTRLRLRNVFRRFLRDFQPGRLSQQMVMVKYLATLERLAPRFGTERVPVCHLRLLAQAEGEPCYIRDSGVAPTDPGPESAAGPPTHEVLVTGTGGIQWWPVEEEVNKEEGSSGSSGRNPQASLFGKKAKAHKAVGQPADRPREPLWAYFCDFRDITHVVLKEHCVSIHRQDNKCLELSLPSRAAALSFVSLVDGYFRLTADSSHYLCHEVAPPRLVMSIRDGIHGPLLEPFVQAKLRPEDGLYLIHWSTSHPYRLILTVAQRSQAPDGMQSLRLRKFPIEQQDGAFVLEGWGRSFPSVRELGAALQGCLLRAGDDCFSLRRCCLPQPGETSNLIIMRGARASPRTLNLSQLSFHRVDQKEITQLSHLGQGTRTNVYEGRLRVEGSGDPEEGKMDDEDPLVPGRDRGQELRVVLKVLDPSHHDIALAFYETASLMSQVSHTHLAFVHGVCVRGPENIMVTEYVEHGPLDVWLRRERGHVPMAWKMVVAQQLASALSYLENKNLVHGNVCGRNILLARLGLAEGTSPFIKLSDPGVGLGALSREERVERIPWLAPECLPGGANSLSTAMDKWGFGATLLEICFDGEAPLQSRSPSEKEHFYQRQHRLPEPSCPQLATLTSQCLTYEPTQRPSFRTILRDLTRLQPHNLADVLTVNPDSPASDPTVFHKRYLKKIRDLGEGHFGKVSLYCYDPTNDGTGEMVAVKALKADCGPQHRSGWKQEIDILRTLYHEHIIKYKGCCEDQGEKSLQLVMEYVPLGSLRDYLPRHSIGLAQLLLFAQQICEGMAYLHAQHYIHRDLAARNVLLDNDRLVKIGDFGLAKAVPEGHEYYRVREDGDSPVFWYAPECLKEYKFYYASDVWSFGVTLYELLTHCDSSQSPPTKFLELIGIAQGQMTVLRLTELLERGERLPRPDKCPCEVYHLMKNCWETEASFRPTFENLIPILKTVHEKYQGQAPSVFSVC
Assay: TYK2 degradation MSD assay in human PBMC cells
Type: cell-based
Design: endogenous in cells; host or cells: human PBMC
Conditions: 4 to 24 hours incubation, read-out: TYK2 MSD DC50 rating in human PBMC

{"columns": ["compound", "DC50"],
 "data": [
  ["CNc1cc(Nc2cccn(-c3ccc(C(=O)N4CCC(CN5CCCN(c6ccc(-c7ccc8c(c7)n(C)c(=O)n8C7CCC(=O)NC7=O)cn6)CC5)CC4)cn3)c2=O)nn2c(C(=O)N[C@@H]3C[C@@H]3F)cnc12 (some centres unmarked)", "> 100 nM"],
  ["CNc1cc(Nc2cccn(-c3cccc(C(=O)NCCOCCOCCOCCOCCc4ccc5c(c4)n(C)c(=O)n5C4CCC(=O)NC4=O)c3)c2=O)nn2c(C(=O)N[C@@H]3C[C@@H]3F)cnc12 (some centres unmarked)", "> 100 nM"],
  ["Cn1c(=O)n(C2CCC(=O)NC2=O)c2ccc(CCCCNC(=O)c3ccc(-n4cccc(Nc5ccc6ncc(C(=O)N[C@@H]7C[C@@H]7F)n6n5)c4=O)nc3)cc21 (some centres unmarked)", "> 100 nM"],
  ["CNC(=O)c1cnc(Nc2ccc(CN3CCC(CN4CCC(c5ccc6c(c5)n(C)c(=O)n6C5CCC(=O)NC5=O)CC4)CC3)cn2)cc1Nc1cccc(-c2ncc(F)cn2)c1OC (centres unmarked)", "< 1 nM"],
  ["Cn1c(=O)n(C2CCC(=O)NC2=O)c2ccc(CN3CCC(CNc4cc(Nc5cccn(-c6ccccn6)c5=O)nn5c(C(=O)N[C@@H]6C[C@@H]6F)cnc45)CC3)cc21 (some centres unmarked)", "> 100 nM"],
  ["CNc1cc(N2CCc3c(-c4ccc(CN5CCN(c6ccc(-c7ccc8c(c7)n(C)c(=O)n8C7CCC(=O)NC7=O)cc6)CC5)cn4)cccc32)nn2c(-c3cn(C(C)C)nn3)cnc12 (centres unmarked)", "> 100 nM"],
  ["CNc1cc(Nc2cccn(-c3ccc(C(=O)NCCCCc4ccc5c(c4)n(C)c(=O)n5C4CCC(=O)NC4=O)cn3)c2=O)nn2c(C(=O)N[C@@H]3C[C@@H]3F)cnc12 (some centres unmarked)", "> 100 nM"],
  ["Cn1c(=O)n(C2CCC(=O)NC2=O)c2cccc(CCOCCOCCOCCOCCOCCOCCNc3cc(Nc4cccn(-c5ccccn5)c4=O)nn4c(C(=O)N[C@@H]5C[C@@H]5F)cnc34)c21 (some centres unmarked)", "> 100 nM"],
  ["CNc1cc(Nc2cccn(-c3ccc(C(=O)N(C)CC4CCN(c5ccc6c(c5)n(C)c(=O)n6C5CCC(=O)NC5=O)CC4)cn3)c2=O)nn2c(C(=O)N[C@@H]3C[C@@H]3F)cnc12 (some centres unmarked)", "< 1 nM"],
  ["CNc1cc(Nc2cccc(C3CCC(CN4CCN(c5ccc(-c6ccc7c(c6)n(C)c(=O)n7C6CCC(=O)NC6=O)cc5)CC4)CC3)c2OC)nn2c(C(=O)N[C@@H]3C[C@@H]3F)cnc12 (some centres unmarked)", "> 100 nM"],
  ["Cc1cc(C)cc(Nc2cc(NCCCCCCCCc3ccc4c(c3)n(C)c(=O)n4C3CCC(=O)NC3=O)c3ncc(C(=O)N[C@@H]4C[C@@H]4F)n3n2)c1 (some centres unmarked)", "> 100 nM"],
  ["CNc1cc(Nc2cccc(C3CCN(CC4CCN(c5ccc(-c6cccc7c6n(C)c(=O)n7C6CCC(=O)NC6=O)cc5)CC4)CC3)c2OC)nn2c(C(=O)N[C@@H]3C[C@@H]3F)cnc12 (mixture of isomers)", "> 100 nM"],
  ["CCNC(=O)c1cnc2c(NC)cc(Nc3cccc(-c4ccc(CN5CCN(c6ccc(-c7ccc8c(c7)n(C)c(=O)n8C7CCC(=O)NC7=O)cc6)CC5)cn4)c3OC)nn12 (centres unmarked)", "> 100 nM"],
  ["CNc1cc(N2CCc3c(CN4CCC(CN5CCN(c6ccc7c(c6)n(C)c(=O)n7C6CCC(=O)NC6=O)CC5)CC4)cccc32)nn2c(C(=O)N[C@@H]3C[C@@H]3F)cnc12 (some centres unmarked)", "> 100 nM"],
  ["CNc1cc(Nc2cccc(-c3ccc(CN4CCN(c5ccc(-c6ccc7c(c6)n(C)c(=O)n7C6CCC(=O)NC6=O)cc5)CC4)cn3)c2OC)nn2c(-c3cn(C(C)C)nn3)cnc12 (centres unmarked)", "> 100 nM"],
  ["CNC(=O)c1cnc(Nc2ccc(CN3CC(c4ccc5c(c4)n(C)c(=O)n5C4CCC(=O)NC4=O)C3)cn2)cc1Nc1cccc(-c2ncc(F)cn2)c1OC (centres unmarked)", "1 to 10 nM"],
  ["CNc1cc(Nc2cccc(CN3CCN(c4ccc(-c5ccc6c(c5)n(C)c(=O)n6C5CCC(=O)NC5=O)cc4)CC3)c2Cl)nn2c(C(=O)N[C@@H]3C[C@@H]3F)cnc12 (some centres unmarked)", "> 100 nM"],
  ["CNc1cc(Nc2cccn(-c3ccc(C(=O)N[C@H]4CC[C@H](CN(C)C5CCN(Cc6cccc7c6n(C)c(=O)n7C6CCC(=O)NC6=O)CC5)CC4)cn3)c2=O)nn2c(C(=O)N[C@@H]3C[C@@H]3F)cnc12 (some centres unmarked)", "> 100 nM"],
  ["CNc1cc(Nc2cccn(-c3ccc(C(=O)NCCCCc4ccc5c(c4)n(C)c(=O)n5C4CCC(=O)NC4=O)cn3)c2=O)nn2c(C(N)=O)cnc12 (centres unmarked)", "> 100 nM"],
  ["CNc1cc(N2CCc3c(-c4ccc(CN5CCC6(CC5)CCN(C(=O)c5cccc(N7CCC(=O)NC7=O)c5)CC6)cn4)cccc32)nn2c(C(=O)N[C@@H]3C[C@@H]3F)cnc12", "> 100 nM"]
]}
